MEASUREMENT TARGET: Muscarine-M1 (Homo sapiens)
Sequence (P11229 1-460): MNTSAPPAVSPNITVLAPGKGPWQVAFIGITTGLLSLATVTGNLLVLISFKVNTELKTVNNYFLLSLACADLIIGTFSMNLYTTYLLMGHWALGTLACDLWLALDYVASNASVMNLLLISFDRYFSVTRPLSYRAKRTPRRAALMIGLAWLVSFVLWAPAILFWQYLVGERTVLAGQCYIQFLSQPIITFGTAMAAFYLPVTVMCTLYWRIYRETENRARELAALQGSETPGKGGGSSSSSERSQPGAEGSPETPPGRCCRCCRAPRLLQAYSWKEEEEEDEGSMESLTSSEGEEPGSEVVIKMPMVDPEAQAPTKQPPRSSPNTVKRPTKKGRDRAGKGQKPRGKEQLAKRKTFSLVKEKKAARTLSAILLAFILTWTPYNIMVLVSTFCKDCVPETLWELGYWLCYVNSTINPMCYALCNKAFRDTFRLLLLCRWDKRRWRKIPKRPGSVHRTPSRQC
pKi: −log10 of the molar value.
Consider the following compounds and their measured pKi readings.

Fc1ccc(-c2cncc(CN3CCN(c4cccc5c4OCCO5)CC3)c2)cc1 [SLV313, reference compound] = < 5.00

Which measured pKi value corresponds to [O-][n+]1cc(CN2CCN(c3cccc4c3OCCO4)CC2)cc(-c2ccc(F)cc2)c1 [pyridine N-oxide] ?
< 5.00
